test description: Tmax in Sprague-Dawley rat at 10 mg/kg, po measured up to 24 hrs by LC-MS/MS analysis
Format: ADME, organism-based
condition: in vivo
observed property: Tmax (h)
Express the result in h but write the number alone.

C[C@]12CC[C@H](NC(=O)c3ccncc3)CC1=CC[C@@H]1[C@@H]2CC[C@]2(C)C(n3ccnc3)=CC[C@@H]12	2
Cc1cn(C2=CC[C@H]3[C@@H]4CC=C5C[C@@H](NC(=O)c6ccncc6)CC[C@]5(C)[C@H]4CC[C@]23C)cn1	2.17

Lab note: next compound to report on.
// field: Tmax; key: `Cc1cn(C2=CC[C@H]3[C@@H]4CC=C5C[C@@H](NC(=O)c6ccnnc6)CC[C@]5(C)[C@H]4CC[C@]23C)cn1` ; value = 4.67
